test_conditions: in isopropanol, 283.15 K
readout: solubility (mole fraction)
Give bare numbers.

Q: Write down solubility (mole fraction) measured for item Nc1cccc2ccncc12
Result: 0.00344

---

test_conditions: in ethanol, 318.15 K
readout: solubility (mole fraction)
Numbers only.

Q: Specify measured solubility (mole fraction) for Nc1cccc2ccncc12 .
Result: 0.00508

---

test_conditions: in water, 318.15 K
readout: solubility (mole fraction)
One number for each entry.

Q: Assign solubility (mole fraction) to the following record: Nc1cccc2ccncc12
Result: 0.000113

---

test_conditions: in acetone, 303.15 K
readout: solubility (mole fraction)
Numbers only.

Q: Assign solubility (mole fraction) to the following record: Nc1cccc2ccncc12
Result: 0.00752
